All figures here come from ChEMBL document CHEMBL1201862.

Test system: TK-10
Procedure details: NCI tumour cell line growth inhibition, 48 h
Active and inactive are the calls of the source. No stated cut-off is given here; in the data, active = GI50 up to about 1.1 µM and inactive = higher.
Respond only with the outcome that fits, drawn from class 1 = active, class 0 = inactive

{"Compound": "C=CCNC(=S)N/C=C1\\C(=O)Oc2ccccc2C1=O", "Assigned category": "class 0"}
{"Compound": "c1cncc(C(Nc2cccc3cccnc23)Nc2cccc3cccnc23)c1", "Assigned category": "class 0"}

With those in mind, consider the next compound.
Qu. Please share the test call associated with Cc1ccc([Se](=C(C(=O)c2ccccc2)C(=O)c2ccccc2)c2ccc(C)cc2)cc1 .
Ans. class 0

* * *

System: COLO 205
Procedure details: NCI tumour cell line growth inhibition, 48 h
Calls of active or inactive are those of the source. No stated cut-off is given here; in the data, active = GI50 up to about 1.1 µM and inactive = higher.
Endpoint label: GI50

Previously resolved entries follow.
{"Compound": "COC(=O)C1=C(C)NC(=O)N2[C@@H](CCOCc3ccccc3)CC[C@@H]12", "Endpoint value": "> 50 µM (inactive)"}
{"Compound": "COc1ccc2c(c1OC)C(=O)O[C@@H]2[C@H]1c2cc3c(cc2CCN1C)OCO3", "Endpoint value": "> 100 µM (inactive)"}

Record summary for Cc1nc2c(=O)n(C)ncc2[nH]1 : reported GI50 = > 100 µM (inactive)

Record summary for CN(C)CCNC(=O)c1cccc2nc3c(ccc4ccccc43)nc12 : reported GI50 = 1.6 µM (inactive)

Record summary for Cn1c2c([N+](=O)[O-])[se]nc2c(=O)n1-c1ccc([N+](=O)[O-])cc1 : reported GI50 = 1.67 µM (inactive)

Record summary for COc1cc(C2c3[nH]c4ccc(F)cc4c3C[C@H]3COC(=O)N23)cc(OC)c1O (stereo not given in full) : reported GI50 = 4.18 µM (inactive)

Record summary for CCCCCCCCCCCCCCCCCc1cccc(OCOCCOC)c1CO : reported GI50 = > 100 µM (inactive)

Record summary for COC(=O)C1(NC(=O)C(CC(=O)OCc2ccccc2)NC(=O)OCc2ccccc2)CCCCCCC1 (stereo not given) : reported GI50 = 25.8 µM (inactive)

Record summary for N#[N+]c1cc2c(cc1Br)-c1ccccc1C2 : reported GI50 = > 100 µM (inactive)

Record summary for CN(C(=O)c1cc2c(s1)sc1c(=O)n(C)c3ccccc3c12)c1ccccc1 : reported GI50 = > 100 µM (inactive)

* * *

Tested on: NCI-H522
Procedure details: NCI tumour cell line growth inhibition, 48 h
Active and inactive are the calls of the source. Rule as the data show it: active = GI50 up to about 1.1 µM and inactive = higher. Residues, ends and D or L forms follow the SMILES beside them. *: point of attachment. Boc = CC(C)(C)OC(=O)*; OBn = c1ccc(CO*)cc1
Respond only with the outcome that fits, drawn from active, inactive

Field: example entries. Status: answers known.
{"Compound": "CC(=O)OCC1OC(O[C@@H]2C[C@H]3C(C)(C)[C@H](OC(C)=O)CC[C@]3(C)[C@H]3CC[C@]4(C)C(=CC[C@H]4[C@@H](C)C[C@@H](O)[C@H](O)C(C)(C)O)[C@@]32C)C(O)C(O)C1O (stereo partly drawn)", "Assigned category": "inactive"}
{"Compound": "Cc1nc2ccccc2c(=O)n1/N=C(\\N=N\\c1cccc(Cl)c1)c1ccccc1Cl", "Assigned category": "inactive"}
{"Compound": "CC(C)CC(NC(=O)OC(C)(C)C)C(=O)NC(CC(=O)OCc1ccccc1)C(=O)OCc1ccccc1 (stereo not drawn) (Boc-Leu-Asp(OBn)-OBn; configuration not given here)", "Assigned category": "inactive"}
{"Compound": "O=c1c2cc([N+](=O)[O-])cnc2sn1-c1ccc(Br)cc1", "Assigned category": "inactive"}
{"Compound": "Cc1ncc([N+](=O)[O-])n1CCNS(=O)(=O)CCCn1ncnc1[N+](=O)[O-]", "Assigned category": "inactive"}
{"Compound": "CC(=O)NC1C(OCc2ccccc2)OC(CO)C(O)C1OCC(=O)N[C@@H](C)C(=O)N[C@H](CCC(=O)NCCCCNc1c2ccccc2nc2cccc([N+](=O)[O-])c12)C(N)=O (stereo partly drawn)", "Assigned category": "active"}

Qu. Please share the test call associated with c1ccc(CN[C@]23C4C5CC6C7C5C2C7[C@@](NCc2ccccc2)(C64)N3Cc2ccccc2)cc1 (stereo partly drawn) .
Ans. inactive

Qu. Please share the test call associated with C1CN2CCN3CCN4CCN1[PH]243 .
Ans. inactive

Qu. Please share the test call associated with CCC/C(C)=N/NC(=S)SC.CCC/C(C)=N/NC(=S)SC.[Zn+2] .
Ans. inactive

Qu. Please share the test call associated with CC(C)C(OC(=O)c1cc(NC(=S)c2ccccc2)ccc1Cl)C(C)C .
Ans. inactive

* * *

System: SF-539
Procedure details: NCI tumour cell line growth inhibition, 48 h
The source made the active and inactive calls. Cut-off read from the data, not from the text of the source: active = GI50 up to about 1.1 µM and inactive = higher.
Endpoint label: GI50

Previously resolved entries follow.
{"Compound": "CN(C)CCNC1=C(Cl)C(=O)c2c(O)ccc(O)c2C1=O", "GI50": "1.73 µM (inactive)"}
{"Compound": "O=C(Nc1ccc(Cl)c(Cl)c1)C(=O)Nn1c(S)nc2ccccc2c1=O", "GI50": "> 100 µM (inactive)"}
{"Compound": "Cc1c(-c2ccccc2)c(C#N)c2nnn(-c3ccc(Cl)cc3)c(=O)n12", "GI50": "20.7 µM (inactive)"}

Record summary for COC(=O)c1c(OC(C)=O)ccc2c1c1c(OC(C)=O)c3ccccc3c(OC(C)=O)c1n2Cc1cc(OC)cc(OC)c1 : reported GI50 = 3.09 µM (inactive)

Record summary for CN(C)C1(C(=O)O)CC1 : reported GI50 = > 100 µM (inactive)

Record summary for CCC/C(C)=N/NC(=S)SC.CCC/C(C)=N/NC(=S)SC.[Zn+2] : reported GI50 = 13.7 µM (inactive)

Record summary for Cn1cc(S(=O)(=O)NC(=O)Nc2ccc(Cl)cc2)c(=O)c2ccc(Cl)cc21 : reported GI50 = > 100 µM (inactive)

Record summary for O=[N+]([O-])/C(C(Cl)=C(Cl)Cl)=C(\N1CCCCC1)n1cncn1 : reported GI50 = 17.1 µM (inactive)

Record summary for CC(C)(C)OC(=O)NC(Cc1ccc(OCc2ccccc2)cn1)C(=O)O (stereo unspecified) : reported GI50 = > 100 µM (inactive)

Record summary for O=c1ccn2n1Cc1ccccc1C2 : reported GI50 = > 100 µM (inactive)

Record summary for CC(=O)Oc1ccc(-c2cc3ccccc3oc2=O)cc1 : reported GI50 = > 100 µM (inactive)

* * *

Tested on: MOLT-4
Procedure details: NCI tumour cell line growth inhibition, 48 h
Activity calls are given as the source filed them. Rule as the data show it: active = GI50 up to about 1.1 µM and inactive = higher.
Respond only with the outcome that fits, drawn from active, inactive

{"Molecule": "CCOP(=O)(OCC)C1CCCCOC1=O (stereo not drawn)", "System under test": "MOLT-4", "Assigned category": "inactive"}

With those in mind, consider the next molecule.
Qu. Please share the test call associated with O=c1[nH]nc(NNc2ccccc2)c2nnn(C3CCCCC3)c12 .
Ans. inactive

* * *

In this section, each of the compounds is paired with its reported GI50.
Tested on: OVCAR-5
Procedure details: NCI tumour cell line growth inhibition, 48 h
Activity calls are given as the source filed them. No stated cut-off is given here; in the data, active = GI50 up to about 1.1 µM and inactive = higher.

Previously resolved entries follow.
{"Compound": "CC(=O)O[C@H]1CC[C@@]2(C)C(=C[C@H](c3ccc(O)cc3)[C@H]3[C@@H]4CC[C@H](OC(C)=O)[C@@]4(C)CC[C@@H]32)C1", "GI50": "23.7 µM (inactive)"}
{"Compound": "OCC(O)C(O)C(O)c1nn(-c2ccccc2)c2nc3cc(Cl)c(Cl)cc3nc12 (stereo not given)", "GI50": "28.6 µM (inactive)"}
{"Compound": "CC(C)(CCC(C)(C)c1ccccc1)c1ccccc1", "GI50": "18.8 µM (inactive)"}

Record summary for C=C1CCCC(C)(C)[C@@H]1CC/C(C)=C/Cn1c2cccc(=O)c-2nc2ccccc21 : reported GI50 = 3.25 µM (inactive)

Record summary for O=C1CC(=O)NC(NN2C(=O)/C(=C/c3ccc(Cl)cc3)N=C2c2ccccc2)=N1 : reported GI50 = 15.1 µM (inactive)

Record summary for COC(=O)c1cc2c3c(ccc2[nH]1)N(C(=O)c1cc2cc(OC)c(OC)c(OC)c2[nH]1)CC3CCl (stereo not given) : reported GI50 = > 100 µM (inactive)

Record summary for CCCCCCCCCCCCCCCCCc1cccc(OCOCCOC)c1CO : reported GI50 = > 100 µM (inactive)

Record summary for CC(=O)NC1C(OCc2ccccc2)OC(CO)C(O)C1OCC(=O)N1CCCC1C(=O)N[C@@H](CCC(=O)NCCNCCNc1c2ccccc2nc2cccc([N+](=O)[O-])c12)C(N)=O (stereo not given in full) : reported GI50 = 6.81 µM (inactive)

Record summary for COc1c2c(cc3oc(C)cc(=O)c13)OC(=N)C(C(N)=O)C2CC(=O)c1ccc(N)cc1 (stereo not given) : reported GI50 = > 100 µM (inactive)

Record summary for O=c1c(C(c2ccc3ccccc3c2)c2c(O)oc3cc(O)ccc3c2=O)c(O)oc2cc(O)ccc12 : reported GI50 = > 100 µM (inactive)
